experiment: qHTS for Inhibitors of the Aldehyde Dehydrogenase Family (ALDH1A2, ALDH1A3, ALDH2, ALDH3A1) (AID 2061307); also: nearly all actives have a fitted effect of over 50% in size
experimentalContext: ALDH inhibition qHTS; series mostly up to 50.3 µM
Inconclusive results are not listed. Active and inactive are the calls of the source. Calls follow the shape of the dose curve; as a rule, active = well fitted inhibition curve with a large enough effect; inconclusive = small, poorly fitted or top-dose-only effect; inactive = no such curve, though single readings can be large or run the other way.
Write down one outcome, taken from T (active), F (inactive)

stdin: So what was the verdict on COc1ccc(C(=O)c2c(C)n(CC(=O)O)c3cc(OC)ccc23)cc1 in this test?
stdout: F

stdin: And for COc1cc2ncnc(N(C)Cc3csc(C)n3)c2cc1-c1ccc2c(c1)OCO2 ?
stdout: F

stdin: Then O=C(NCCN1CCN(c2cccc(Cl)c2)CC1)Nc1ccccc1C(F)(F)F ?
stdout: F

stdin: Also, Cn1nc(-c2ccccc2)cc1C(=O)N[C@H](Cc1ccc2ccccc2c1)C(=O)O please.
stdout: F

stdin: Also need CCN1CCC(N(CCc2ccccc2)Cc2ccccc2)CC1 , thanks.
stdout: F

stdin: Try this molecule too: COc1ccc(-c2nn(-c3ccccc3)cc2C(=O)Nc2ccccc2OC)cc1
stdout: F

stdin: Moving on to COc1cc(O)c(C(CC(=O)N2CC(C)CC(C)C2)c2cccc(NS(C)(=O)=O)c2)c(OC)c1 (configuration not stated)
stdout: T

stdin: Follow-up item: CCOC(=O)c1ccc(-c2ccc3ncnc(NCc4ccc(C)o4)c3c2)o1
stdout: F

stdin: Then this molecule: COc1ccc(-c2nc(CCNC(=O)c3c(F)cccc3Cl)cs2)cc1
stdout: F

stdin: Would you mind doing COc1ccc(C2Nc3ccccc3C(=O)N2Cc2ccccc2OC)cc1COc1ccc(NC(C)=O)cc1 (configuration not stated) as well?
stdout: T

stdin: Field entry: O=C(NCC(=O)N1CCC(c2ccccc2)CC1)c1cccc(-c2ccc(C(F)(F)F)cc2)c1
stdout: F

stdin: Can you check Cc1ccc(S(=O)(=O)Nc2cc(F)ccc2C(=O)Nc2nc(-c3ccccc3)cs2)cc1 next?
stdout: T

stdin: Let us now turn to O=C(Nc1ccc(S(=O)(=O)N2CCOCC2)cc1)c1ccc(CN2Cc3ccccc3C2)cc1
stdout: T

stdin: What do you get for O=C(CSc1nc2ccccc2c(=O)[nH]1)Nc1nc(-c2ccc(Br)cc2)cs1 ?
stdout: F

stdin: Follow-up entry: COc1ccc(CC2NCCC3=CC(=O)CCC32)cc1O (configuration not stated)
stdout: F

stdin: Quick one: Cc1ccc(CNC(=O)c2cc(=O)c3cc(C)ccc3o2)cc1
stdout: F

stdin: And what about the molecule CC(=O)c1c(C)n(-c2ccccc2)c2ccc(O)cc12 ?
stdout: T

stdin: Next entry: CC(C)(C)OC(=O)NCCOCCOCCOCCn1ncc2c1CCCC2NC(=O)c1ccccn1 (configuration not stated)
stdout: F

stdin: Can you handle COc1ccc(-n2c(C)c(C(C)=O)c3ccccc32)cc1 next?
stdout: T

stdin: Try Cc1oc(-c2ccc(C(F)(F)F)cc2)nc1COc1cccc2cc(NS(=O)(=O)C(F)(F)F)ccc12 next.
stdout: T

stdin: Moving on to O=C1Nc2cc(Cl)ccc2/C1=C\c1cc(Cl)c(O)c(Cl)c1
stdout: T

stdin: Queued: Cc1c(NCCOc2ccccc2F)cccc1C(N)=O
stdout: F

stdin: Same lookup for CC(C)(C)c1ccc(-c2nnc(NC(=O)Nc3ccc4ccccc4c3)s2)cc1 , please.
stdout: T

stdin: # iterate: O=C(CSc1n[nH]c2nc3ccccc3n12)Nc1cc(C(F)(F)F)ccc1Cl
stdout: T

stdin: Same read-out for Cc1ccc(C(=O)NCC(c2ccc3c(c2)OCO3)N2CCN(c3ccc(F)cc3)CC2)cc1 (configuration not stated) ?
stdout: F

stdin: Same thing, different molecule: COc1ccc(-n2ncc3c2CCCC3NC(=O)c2cccc(OC(F)(F)F)c2)cc1 (configuration not stated)
stdout: T

stdin: Follow-up entry: CSCCC(NS(=O)(=O)c1ccc2c(c1)oc(=O)n2C)C(=O)N1CCN(c2ccc(C(C)=O)cc2)CC1 (configuration not stated)
stdout: F

stdin: Queued: O=C1C=CC(=O)N1c1ccc(N2CCOCC2)cc1
stdout: T

stdin: Try the molecule CCOC(=O)c1ccc2c(c1)c(C(C)=O)c(C)n2-c1ccc(OC)cc1
stdout: F

stdin: Follow-up item: CSc1ccc(-c2csc(N3CCC(C(N)=O)CC3)n2)cc1
stdout: T

stdin: Consider next the molecule COC(=O)c1ccnc(NCc2ccc(O)c3ncccc23)c1 in the same way.
stdout: T

stdin: Another molecule to look at: O=C([C@@H]1CCCN(c2ccc3[nH]c(C4(n5cc(Cl)cn5)CC4)nc3n2)C1)N1CCCC1
stdout: F

stdin: Try this molecule next: O=C(O)C1CCN(c2ncc(-c3ccc4c(c3)OCCCO4)s2)CC1
stdout: T

stdin: One more molecule: N#CNC(=O)c1ccc(-n2cccc2/C=C2\NC(=O)N(CC(=O)Nc3ccc(F)cc3)C2=O)cc1
stdout: T

stdin: Again, but for Cc1csc(-c2cc(-c3c(Cc4ccc(S(N)(=O)=O)c(F)c4)c(CC4CC4)nn3-c3nc(C(=O)O)cs3)ccc2F)c1
stdout: T

stdin: // same read-out, input: O=C(O)c1ccc2c(c1)C(=O)N(CCc1ccc(O)cc1)C2=O
stdout: F

stdin: Now give it for O=C1Cc2cc(S(=O)(=O)N3CCN(c4ccc(Cl)cc4)CC3)ccc2N1 too.
stdout: F

stdin: Cc1ccc(NC(=O)CSc2nc3ccccc3nc2N2CCOCC2)cc1 ?
stdout: T

stdin: // same read-out, input: CC(=O)Nc1sc2c(c1-c1ccc(C#N)cc1)CCNC2
stdout: F

stdin: Same lookup for O=C(c1ccc(F)cc1)c1no[n+]([O-])c1C(=O)c1ccc(F)cc1 , please.
stdout: T

stdin: Check N#Cc1ccc(C(=O)Nc2nnc(C3=COCCO3)o2)cc1 too.
stdout: F

stdin: Next entry: COc1ccc(-c2ccncc2)cc1OC
stdout: F
